# Tested on: NCI-H522 lung
# Assay details: NCI-60 one-dose screen, 48 h (100 = growth as untreated, 0 = no growth, -100 = all killed)
# Test parameters: 10 µM unless noted
The panel holds about 83,000 compounds, 20% with a hit somewhere; the sample as a whole holds those more often.
Quantity: growth (%)
Output spec: scalar in %, unitless text.

Molecule	Experimental system	Endpoint result
Nc1ccc(C2=NNC(=O)Cc3cc4c(cc32)OCCO4)cc1Cl	NCI-H522 lung	11
CCCCCN(CCCCC)C(=O)C(CCC(=O)O)NC(=O)c1ccc(Cl)c(Cl)c1 (stereo not drawn)	NCI-H522 lung	110
Cc1c(C(N)=O)sc2ncn(CC(=O)NN=C3CCCCC3)c(=O)c12	NCI-H522 lung	83.8
CC(C)[C@@H]1C=C2CC[C@H]3[C@](C)(CN)CCC[C@]3(C)[C@H]2CC1	NCI-H522 lung	86.7
CCCCCCCCN=C(NCCCCCCCC)SCc1cccc2ccccc12	NCI-H522 lung	-83.3
CN1C(=O)N(C)C2C1NN=c1s/c(=C\c3ccc(Br)cc3)c(=O)n12 (stereo not drawn)	NCI-H522 lung	-14.6
O=C1C=CN2C(=O)CC=CC2[C@@H]1O (stereo partly drawn)	NCI-H522 lung	113
O=C(Cc1ccc([N+](=O)[O-])cc1)Oc1ccccc1	NCI-H522 lung	97.2
CCN(CC)CCNC(=O)n1cc(-c2ccncc2)c(-c2cc(Cl)cc(OC)c2)n1	NCI-H522 lung	92.3
CCCCCCCCCCCCCCCCCC1=NCCN1CCO	NCI-H522 lung	80.8

[in] Test system NCI-H522 lung; read-out growth; what value for CCN(CC)c1cc(C)c(Cc2c(OC)ccc3ccccc23)cc1C ?
[out] 74.7

* * *

# System: SR leukemia
# Assay details: NCI-60 one-dose screen, 48 h
# Test parameters: 10 µM unless noted
The panel holds about 83,000 compounds, 20% with a hit somewhere; the sample as a whole holds those more often. Active and inactive are the calls of the source. Rule for the calls: active = growth percent below 10; inactive = the rest.
Answer with one of the outcomes given here: Yes (active), No (inactive)

Please review the entries below; each comes with its answer.
Compound	Assigned category
Cc1cc(-c2ccc(N=Nc3c(S(=O)(=O)O)cc4cc(S(=O)(=O)O)cc(O)c4c3O)c(C)c2)ccc1N=Nc1c(S(=O)(=O)O)cc2cc(S(=O)(=O)O)cc(O)c2c1O	No
O=C(O)CSc1ccc(NCc2oc(CO)cc(=O)c2O)cc1	No
O=C(CC(=O)C(F)(F)C(F)(F)C(F)(F)F)c1cc2ccccc2o1	No
COc1ccc(C(=O)O)cc1.[Ag]	No
CCOC(=O)C(Cc1ccccc1)n1c(O)c(/C=N/c2ncc(Cc3ccc(Cl)cc3Cl)s2)sc1=S (stereo not given)	No

[in] Please share the test call associated with CC(C)N(C(=S)SSC(=S)N(C(C)C)C(C)C)C(C)C .
[out] No

[in] Please share the test call associated with S=C(S)Oc1cccc2cccnc12 .
[out] No

[in] Please share the test call associated with CCOC(=O)CCN(CCC(=O)OCC)c1ccccc1 .
[out] No

[in] Please share the test call associated with CN(C)CC(=O)c1ccc2cc(Br)c3ccccc3c2c1 .
[out] No

[in] Please share the test call associated with CC(C)CCC(=O)[C@@H](C)[C@H]1[C@@H](OC2OCC(O)C(O)C2NS(C)(=O)=O)C[C@H]2[C@@H]3CC=C4C[C@@H](O)CC[C@]4(C)[C@H]3CC[C@]12C (stereo not given in full) .
[out] No

[in] Please share the test call associated with COc1cccc(N2CCN(c3ncnc4cc[nH]c34)CC2)c1 .
[out] No

* * *

# reported growth; entries follow
# Test system: M14 melanoma
# Assay details: NCI-60 one-dose screen, 48 h (100 = growth as untreated, 0 = no growth, -100 = all killed)
# Test parameters: 10 µM unless noted
# Procedure: Growth inhibition of the M14 human tumor cell line is measured as a screen for anti-cancer activity. Cells are grown in 96 well plates and exposed to the test compound for 48 hours. Compounds are tested at a single concentration, which is 10^-5 M for most compounds. The reported endpoint is percent growth (GI% or GIPRCNT), where numbers from 0 - 100% represent growth inhibition, and numbers from -100% - 0 represent cell death. For example, a value of 40 represents 60% growth inhibition. […]
About 83,000 compounds went through this panel and 20% of them were active in at least one assay; those are over-represented in the sample as a whole.
Output spec: scalar in %, unitless text.

Molecule	Quantity	Endpoint result
O=C1C(Cl)=C(Nc2cccc3ccccc23)C(=O)c2ccccc21	growth	87.8
O=P(O)(O)C(O)(Cc1cccnc1)P(=O)(O)O	growth	99.6
COc1cc(C2C(C#N)=C(N)Oc3cc4c(cc32)OCO4)cc2c1OCO2 (stereo unspecified)	growth	-2.77

[in] What growth value was documented for this molecule, Cc1cc(N)cc(C)c1-c1c(Br)cc(N)cc1Br ?
[out] 10.8

[in] What growth value was documented for this molecule, CS(=O)(=O)c1ccc(Cl)c([N+](=O)[O-])c1 ?
[out] 108

[in] What growth value was documented for this molecule, CC(=O)NC1C(O[C@H]2C[C@H]3[C@@H]4CC=C5C[C@@H](O)CC[C@]5(C)[C@H]4CC[C@]3(C)[C@H]2[C@H](C)C(=O)CCC(C)C)OCC(O)C1O (stereo partly specified) ?
[out] -22.2

[in] What growth value was documented for this molecule, C[C@@H]1N=C(c2ccc3ccccc3c2)Nc2nc3ccccn3c2C1=O ?
[out] 19.8

[in] What growth value was documented for this molecule, CCC(=O)NC1=C(Cl)C(=O)C(NC(=O)CC)=C(Cl)C1=O ?
[out] 93.7

[in] What growth value was documented for this molecule, O=c1nc(-c2ccccc2)c2cc(-c3ccc(N4CCOCC4)cc3)ccc2[nH]1 ?
[out] 92.3

[in] What growth value was documented for this molecule, c1cc(C2CCCCC2)ccc1-c1cnc2nonc2n1 ?
[out] -16.7

[in] What growth value was documented for this molecule, COc1ccc2nc3ccccc3c(NCc3ccc(Cl)cc3)c2c1 ?
[out] -86.1

* * *

# System: OVCAR-5 ovarian
# Assay details: NCI-60 one-dose screen, 48 h (100 = growth as untreated, 0 = no growth, -100 = all killed)
# Test parameters: 10 µM unless noted
# Procedure: Growth inhibition of the OVCAR-5 human tumor cell line is measured as a screen for anti-cancer activity. Cells are grown in 96 well plates and exposed to the test compound for 48 hours. Compounds are tested at a single concentration, which is 10^-5 M for most compounds. The reported endpoint is percent growth (GI% or GIPRCNT), where numbers from 0 - 100% represent growth inhibition, and numbers from -100% - 0 represent cell death. For example, a value of 40 represents 60% growth inhibition. […]
About 83,000 compounds went through this panel and 20% of them were active in at least one assay; those are over-represented in the sample as a whole.
# reported growth; entries follow
Output spec: scalar in %, unitless text.

Compound	Experimental system	Quantity	Readout unit	Endpoint result
CCOC(=O)N1C2CCC(C2)N1C(=O)OCC	OVCAR-5 ovarian	growth	%	100

Please look at the following compound next.
[in] What growth value was documented for this compound, O=C(Nc1ccc(Br)cc1)Nc1cccc(Br)c1 ?
[out] 76.8

* * *

# Tested on: UACC-257 melanoma
# Assay details: NCI-60 one-dose screen, 48 h (100 = growth as untreated, 0 = no growth, -100 = all killed)
# Test parameters: 10 µM unless noted
# Procedure: Cells are grown in 96 well plates and exposed to the test compound for 48 hours. Compounds are tested at a single concentration, which is 10^-5 M for most compounds. The reported endpoint is percent growth (GI% or GIPRCNT), where numbers from 0 - 100% represent growth inhibition, and numbers from -100% - 0 represent cell death. For example, a value of 40 represents 60% growth inhibition. A value of 0 means no net growth occurred over the course of the experiment. […]
About 83,000 compounds went through this panel and 20% of them were active in at least one assay; those are over-represented in the sample as a whole.
# reported growth; entries follow
Output spec: scalar in %, unitless text.

Compound	Experimental system	growth, %
CSc1ccc(/C=C2\C=C(CC(=O)NCc3ccc(C(=O)c4ccccc4)cc3)c3cc(F)ccc32)cc1	UACC-257 melanoma	55.2

[in] What growth value was documented for this compound, CCCCCCCCCCCCNC(=O)N[C@H](C(=O)N[C@H]1/C=C/OCCNC(=O)/C=C/[C@H](C(C)C)NC1=O)C(C)C ?
[out] 93.1

* * *

# System: U251 CNS
# Assay details: NCI-60 one-dose screen, 48 h (100 = growth as untreated, 0 = no growth, -100 = all killed)
# Test parameters: 10 µM unless noted
This is part of a sample that, as a whole, favours compounds with a hit. Of some 83,000 tested, about 20% had one in any assay.
# growth >= 90% gives T, anything below gives F

Please review the entries below; each comes with its answer.
Compound	Assigned category
CCCCCCCCCCCCCCCCCC1=NCCN1CCO	F
Nc1c(N)c2ccccc2c2ccccc12	T
COc1cc(-c2nn(C(=O)NCCN3CCN(C)CC3)cc2-c2ccncc2)ccc1Cl	F
Cc1ccc(OC2=C(C#N)C(=N)N3C(=NN2)Sc2c(C)ccc(C)c23)cc1	T
CCOC(=O)C(CCCCC(NC(C)=O)(C(=O)OCC)C(=O)OCC)(NC(C)=O)C(=O)OCC	T

[in] Reported growth reaches at least 90% for COc1ccc(-c2conc2-n2nc(-c3ccccc3)nc2-c2ccccc2)cc1 ?
[out] T

[in] Reported growth reaches at least 90% for COc1cc(C2CC(c3ccc(C)cc3)=NN2C=O)ccc1Oc1nc2c(c(=O)n(C)c(=O)n2C)n1C (stereo unspecified) ?
[out] T

[in] Reported growth reaches at least 90% for COc1ccc(CNc2c3ccccc3nc3ccccc23)cc1F ?
[out] F

[in] Reported growth reaches at least 90% for Clc1ccc(-c2nc(-c3cccs3)no2)cc1 ?
[out] F
